I'd be grateful if you could share measured log10 MIC90 for these entries.
- System: Histoplasma capsulatum (G217-B/ATCC 26032)
- Test Protocol: microbe, parasite or virus in culture
- Format: cell-based
- Test Settings: ATCC26032, 144 h
For clarity, the numbers are log10 values of MIC90 expressed in mg/L.

Query: Bench note: what log10 MIC90 did O=C(/C=C/c1ccc([N+](=O)[O-])o1)c1ccc(F)cc1 show?
Reply: 0.59

Query: Data request, read-out log10 MIC90, for O=C(/C=C/c1ccc([N+](=O)[O-])o1)c1ccc(Cl)cc1Cl
Reply: 1.80

Query: // lookup log10 MIC90 for CSc1ccc(C(=O)/C=C/c2ccc([N+](=O)[O-])o2)cc1
Reply: 2.10

Query: Any idea what log10 MIC90 was measured for O=C(/C=C/c1ccc([N+](=O)[O-])o1)c1ccc(Br)cc1 ?
Reply: -0.32

Query: Requested field: log10 MIC90. Item: O=C(NCc1ccccn1)c1ccc([N+](=O)[O-])o1
Reply: 0.59

Query: Any idea what its log10 MIC90 is? The molecule is O=C(NCCc1c[nH]c2ccccc12)c1ccc([N+](=O)[O-])o1
Reply: -0.01

Query: Reported log10 MIC90 for O=C(NCCCc1ccccc1)c1ccc([N+](=O)[O-])o1 : what is it?
Reply: 0.29

###

Assign viability at 24 h, 250 µg/mL to each entry below.
- Test Protocol: in vivo
- Test Settings: AU37 [glp-4 (bn2) I, sek-1 (km4) X], Caenorhabditis elegans, C. elegans larvae viability
Give the number; % is assumed, so skip it.

Query: I have this compound here, O=C(NCCCc1ccccc1)c1ccc([N+](=O)[O-])o1 , and I need its recorded viability at 24 h, 250 µg/mL.
Reply: 85.7

Query: Give the measured viability at 24 h, 250 µg/mL of O=C(/C=C/c1ccc([N+](=O)[O-])o1)c1ccc(Br)cc1 .
Reply: 80

Query: What value of measured viability at 24 h, 250 µg/mL is listed for O=C(NCCc1ccccn1)c1ccc([N+](=O)[O-])o1 ?
Reply: 82.5

###

- Tested on: Trichophyton mentagrophytes (ATCC 11481)
- Test Protocol: Susceptibility assay for dermatophytes (CLSI M38-A2, resazurin), MIC90
- Type: cell-based
- Test Settings: Trichophyton mentagrophytes, ATCC11481, 96 h, T. mentagrophytes, 35 °C, read-out: MIC90
Record form. Attribute: MIC90. Fill in for each entry.
For clarity, give the value followed by its unit.

Query: Form field: MIC90 recorded for O=C(/C=C/c1ccc([N+](=O)[O-])o1)c1ccc(Br)cc1 with Trichophyton mentagrophytes (ATCC 11481) (enter value)
Reply: 7.8 mg/L

Query: Return MIC90 measured with Trichophyton mentagrophytes (ATCC 11481) given this compound: CS(=O)(=O)c1ccc(C(=O)/C=C/c2ccc([N+](=O)[O-])o2)cc1
Reply: 7.8 mg/L

Query: Param readout = MIC90; param system = Trichophyton mentagrophytes (ATCC 11481); param query = O=C(/C=C/c1ccc([N+](=O)[O-])o1)c1ccc(Cl)cc1Cl ; response: value
Reply: 7.8 mg/L

###

- Test system: Histoplasma capsulatum (G217-B/ATCC 26032)
- Test Protocol: microbe, parasite or virus in culture
- Assay type: cell-based
- Test Settings: ATCC26032, 144 h
Record form. Attribute: MIC90. Fill in for each entry.
Supply the numeric figure in µg/mL, leaving out any unit text.

Query: What value of MIC90 on Histoplasma capsulatum (G217-B/ATCC 26032) does O=C(/C=C/c1ccc([N+](=O)[O-])o1)c1ccc(Cl)cc1 [Compound 10] have?
Reply: 7.81

Query: Item: COc1ccc(C(=O)/C=C/c2ccc([N+](=O)[O-])o2)cc1 [Compound 12] Test system: Histoplasma capsulatum (G217-B/ATCC 26032) Read-out: MIC90 Value: ?
Reply: 7.81

Query: Lab note: need MIC90 for O=C(/C=C/c1ccc([N+](=O)[O-])o1)c1ccc(-n2ccnc2)cc1 [Compound 14] on Histoplasma capsulatum (G217-B/ATCC 26032), anyone have it?
Reply: 7.81

From: paper PMC8950151
